# Target or test system: human plasma renin (Homo sapiens)
# Construct: Into human plasma
# Sequence (P00797 67-406): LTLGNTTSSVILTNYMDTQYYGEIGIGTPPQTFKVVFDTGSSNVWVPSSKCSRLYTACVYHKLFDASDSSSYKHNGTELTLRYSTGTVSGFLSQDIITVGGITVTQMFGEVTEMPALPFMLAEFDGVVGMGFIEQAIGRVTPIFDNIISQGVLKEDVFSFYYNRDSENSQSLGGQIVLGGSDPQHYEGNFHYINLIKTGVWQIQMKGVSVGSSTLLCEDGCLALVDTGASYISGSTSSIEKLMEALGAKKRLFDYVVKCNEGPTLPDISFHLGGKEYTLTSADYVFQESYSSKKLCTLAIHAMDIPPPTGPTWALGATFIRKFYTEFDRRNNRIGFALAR
# Procedure summary: Inhibiting effect to human plasma renin
# Conditions used: angiotensin I formation by radio-immunoassay, 37° C., 2 hours, pH4.6, read-out: IC50 /human plasma (50% inhibiting concentration)
Reported pIC50 is given for each of the following molecules.
Scale for pIC50: -log10 of concentration given in mol/L; no unit attached.

>>> measured_number("Cn1nnnc1SCC(O)[C@H](CC1CCCCC1)NC(=O)[C@H](Cc1cnc[nH]1)NC(=O)C(CC(=O)N1CCOCC1)Cc1cccc2ccccc12 (stereo partly drawn)")
9.30

Prompt: Retrieve pIC50 measured for Cn1nnnc1SCC(O)[C@H](CC1CCCCC1)NC(=O)[C@H](Cc1cnc[nH]1)NC(=O)[C@H](Cc1ccccc1)NC(=O)OC(C)(C)C (stereo partly drawn) and print it.
Completion: 8.40

Prompt: Retrieve pIC50 measured for CC(C)OC(=O)C(O)[C@H](CC1CCCCC1)NC(=O)[C@H](Cc1c[nH]cn1)NC(=O)C(CC(=O)N1CCOCC1)Cc1cccc2ccccc12 (stereo partly drawn) and print it.
Completion: 8.40
